From: paper PMC8274477

target: T1, OTULIN (OTU deubiquitinase with linear linkage specificity, FAM105B), His-tagged, biotin-labelled (human, UniProt Q96BN8 1-352, biotin (label; sites not stated)); test: peptide or protein array; HuProt human proteome microarray; 5 ug/5 ml biotin-labelled LUBAC or OTULIN in solution, 1 h at room temperature; Cy5-streptavidin, scanned at 635 nm; BSA as negative control; hits: Z-score >= 3 and I_(Mean_Ratio) >= 1.4; conditions: both partners purified
T1 construct: OTULIN (FAM105B), cDNA in pET28a; also called HIS-OTULIN; source: E. coli BL21 (DE3), purified (His-tag Purification Resin), labelled with biotin; not shown: His6, N-terminal, kept

binder	binding result
NECAP2 (natural protein, human, UniProt Q9NVZ3 1-263, looked up, NECAP2; protein on the human proteome microarray; source: spotted on the HuProt human proteome microarray) MEESGYESVLCVKPDVHVYRIPPRATNRGYRAAEWQLDQPSWSGRLRITAKGQMAYIKLEDRTSGELFAQAPVDQFPGTAVESVTDSSRYFVIRIEDGNGRRAFIGIGFGDRGDAFDFNVALQDHFKWVKQQCEFAKQAQNPDQGPKLDLGFKEGQTIKLNIANMKKKEGAAGNPRVRPASTGGLSLLPPPPGGKTSTLIPPPGEQLAVGGSLVQPAVAPSSGGAPVPWPQPNPATADIWGDFTKSTGSTSSQTQPGTGWVQF	binds
NTPCR (natural protein, human, UniProt Q9BSD7 1-190, looked up, NTPCR; protein on the human proteome microarray; source: spotted on the HuProt human proteome microarray) MARHVFLTGPPGVGKTTLIHKASEVLKSSGVPVDGFYTEEVRQGGRRIGFDVVTLSGTRGPLSRVGLEPPPGKRECRVGQYVVDLTSFEQLALPVLRNADCSSGPGQRVCVIDEIGKMELFSQLFIQAVRQTLSTPGTIILGTIPVPKGKPLALVEEIRNRKDVKVFNVTKENRNHLLPDIVTCVQSSRK	binds
CCNB1IP1 (natural protein, human, UniProt Q9NPC3 1-277, looked up, CCNB1IP1; protein on the human proteome microarray; source: spotted on the HuProt human proteome microarray) MSLCEDMLLCNYRKCRIKLSGYAWVTACSHIFCDQHGSGEFSRSPAICPACNSTLSGKLDIVRTELSPSEEYKAMVLAGLRPEIVLDISSRALAFWTYQVHQERLYQEYNFSKAEGHLKQMEKIYTQQIQSKDVELTSMKGEVTSMKKVLEEYKKKFSDISEKLMERNRQYQKLQGLYDSLRLRNITIANHEGTLEPSMIAQSGVLGFPLGNNSKFPLDNTPVRNRGDGDGDFQFRPFFAGSPTAPEPSNSFFSFVSPSRELEQQQVSSRAFKVKRI	binds
